Below is a list of entries, each paired with its recorded half-life value.
experiment: Metabolic stability in human liver microsomes; assay type: ADME, Microsome
Unit min implied. Number only.

# example entries with known answers
COc1ccc(S(=O)(=O)N[C@H]2CC[C@@H](N3CCC(c4ccccc4OC4CC4)CC3)CC2)cc1OC = 18
CC(C)Oc1ccccc1N1CCN([C@H]2CC[C@@H](NS(=O)(=O)c3ccc(S(C)(=O)=O)cc3)CC2)CC1 = 2.5

Kindly review the next molecule as well.
Request: Quick check: half-life of CC(C)Oc1ccccc1N1CCN([C@H]2CC[C@@H](NS(=O)(=O)c3ccc(Cl)cc3Cl)CC2)CC1 ?
Result: 3.5

---

molecular target: D(2) dopamine receptor (Homo sapiens, UniProt P14416); assay: Binding affinity to human cloned dopamine D2 receptor
Sequence (P14416 whole entry): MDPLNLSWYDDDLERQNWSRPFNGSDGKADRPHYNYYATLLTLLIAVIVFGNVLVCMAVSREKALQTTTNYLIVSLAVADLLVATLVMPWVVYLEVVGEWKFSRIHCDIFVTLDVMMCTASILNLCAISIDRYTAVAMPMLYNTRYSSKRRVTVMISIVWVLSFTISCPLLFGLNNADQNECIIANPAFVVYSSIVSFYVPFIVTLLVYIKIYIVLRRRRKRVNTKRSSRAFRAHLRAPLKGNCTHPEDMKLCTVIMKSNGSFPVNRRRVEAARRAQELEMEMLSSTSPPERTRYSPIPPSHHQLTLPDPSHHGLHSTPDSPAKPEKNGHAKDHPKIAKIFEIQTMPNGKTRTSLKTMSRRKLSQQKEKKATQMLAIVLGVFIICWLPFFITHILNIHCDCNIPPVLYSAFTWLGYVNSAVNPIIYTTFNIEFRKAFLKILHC
measuredProperty: pKi
// scale note: pKi = -log10(conc_M); give the bare number

COc1ccc(S(=O)(=O)N[C@H]2CC[C@@H](N3CCN(c4ccccc4OC(C)C)CC3)CC2)cc1OC = 6.87
COc1ccc(S(=O)(=O)N[C@H]2CC[C@@H](N3CCN(c4ccccc4OCC(F)(F)F)CC3)CC2)cc1OC = 6.72
CCN([C@H]1CC[C@@H](N2CCN(c3ccccc3OC(C)C)CC2)CC1)S(=O)(=O)c1ccc(OC)c(OC)c1 = 6.95
COc1ccc(S(=O)(=O)N[C@H]2CC[C@@H](N3CCC(c4ccccc4OC(C)C)CC3)CC2)cc1OC = 6.78
COc1ccc(S(=O)(=O)N[C@H]2CC[C@@H](N3CCC(c4ccccc4OCC(F)F)CC3)CC2)cc1OC = 6.64

Request: Quick check: pKi of CCN([C@H]1CC[C@H](N2CCN(c3ccccc3OC(C)C)CC2)CC1)S(=O)(=O)c1ccc(OC)c(OC)c1 ?
Result: 8.57

Request: Same lookup for COc1ccc(S(=O)(=O)N[C@H]2CC[C@H](N3CCN(c4ccccc4OCC(F)(F)F)CC3)CC2)cc1OC , please.
Result: 6.94

Request: Same lookup for COc1ccc(S(=O)(=O)N[C@H]2CC[C@@H](N3CCC(c4ccccc4OCCF)CC3)CC2)cc1OC , please.
Result: 6.48

---

Below is a list of entries, each paired with its recorded Ki value.
Target: Alpha-1B adrenergic receptor (Homo sapiens)
Sequence (P35368 whole entry): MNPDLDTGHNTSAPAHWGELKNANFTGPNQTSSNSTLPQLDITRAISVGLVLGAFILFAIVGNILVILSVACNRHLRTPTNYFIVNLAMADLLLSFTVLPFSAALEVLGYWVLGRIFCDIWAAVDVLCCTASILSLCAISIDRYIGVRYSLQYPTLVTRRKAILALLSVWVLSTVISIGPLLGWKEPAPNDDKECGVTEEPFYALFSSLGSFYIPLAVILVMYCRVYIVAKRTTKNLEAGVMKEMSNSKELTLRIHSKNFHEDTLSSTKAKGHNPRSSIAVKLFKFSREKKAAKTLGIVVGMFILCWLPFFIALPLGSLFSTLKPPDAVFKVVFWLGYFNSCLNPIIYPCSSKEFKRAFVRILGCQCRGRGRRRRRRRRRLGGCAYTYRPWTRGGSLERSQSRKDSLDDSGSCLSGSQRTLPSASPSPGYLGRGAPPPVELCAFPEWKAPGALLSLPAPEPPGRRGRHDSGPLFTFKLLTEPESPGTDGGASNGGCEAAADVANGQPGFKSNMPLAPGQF
Unit nM implied. Number only.

# example entries with known answers
COc1ccc(S(=O)(=O)N[C@H]2CC[C@@H](N3CCN(c4ccccc4OCC(F)(F)F)CC3)CC2)cc1OC = 86
COc1ccc(S(=O)(=O)N[C@H]2CC[C@@H](N3CCN(c4ccccc4OC(C)C)CC3)CC2)cc1OC = 106
COc1ccc(S(=O)(=O)N[C@H]2CC[C@@H](N3CCC(c4ccccc4OC(C)C)CC3)CC2)cc1OC = 151

Request: Please provide the recorded Ki for COc1ccc(S(=O)(=O)N[C@H]2CC[C@@H](N3CCC(c4ccccc4OCC(F)F)CC3)CC2)cc1OC , tested on Alpha-1B adrenergic receptor (Homo sapiens).
Result: 278

---

Target: UniProtKB P25100
Sequence (P25100 whole entry): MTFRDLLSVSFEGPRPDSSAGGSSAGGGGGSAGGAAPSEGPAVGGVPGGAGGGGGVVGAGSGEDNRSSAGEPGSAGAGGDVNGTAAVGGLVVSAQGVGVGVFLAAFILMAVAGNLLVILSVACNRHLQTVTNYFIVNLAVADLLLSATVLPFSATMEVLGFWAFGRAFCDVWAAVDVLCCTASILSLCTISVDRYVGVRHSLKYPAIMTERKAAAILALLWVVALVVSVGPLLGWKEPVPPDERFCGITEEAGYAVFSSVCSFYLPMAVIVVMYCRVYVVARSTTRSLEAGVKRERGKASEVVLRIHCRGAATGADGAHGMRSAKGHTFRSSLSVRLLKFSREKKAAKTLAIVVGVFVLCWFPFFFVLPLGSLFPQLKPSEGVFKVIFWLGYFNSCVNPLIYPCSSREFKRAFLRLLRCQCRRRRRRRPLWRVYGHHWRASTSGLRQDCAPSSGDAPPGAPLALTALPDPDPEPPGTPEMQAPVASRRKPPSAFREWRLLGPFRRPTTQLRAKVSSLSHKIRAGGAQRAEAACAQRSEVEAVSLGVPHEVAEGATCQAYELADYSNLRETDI
measuredProperty: Ki (nM)
Unit nM implied. Number only.

COc1ccc(S(=O)(=O)N[C@H]2CC[C@@H](N3CCN(c4ccccc4OCC(F)(F)F)CC3)CC2)cc1OC = 0.35

Request: Quick check: Ki of COc1ccc(S(=O)(=O)N[C@H]2CC[C@@H](N3CCC(c4ccccc4OCC(F)F)CC3)CC2)cc1OC ?
Result: 8.6

Request: Same lookup for COc1ccc(S(=O)(=O)N[C@H]2CC[C@@H](N3CCC(c4ccccc4OC(C)C)CC3)CC2)cc1OC , please.
Result: 1.7

Request: Same lookup for COc1ccc(S(=O)(=O)N[C@H]2CC[C@@H](N3CCN(c4ccccc4OC(C)C)CC3)CC2)cc1OC , please.
Result: 0.68

---

experiment: Metabolic stability in human liver microsomes; assay type: ADME, Microsome
Hi! Could you tag entries with half-life below 20 min as TRUE, and those at or above as FALSE? Much appreciated.

Solved entries:
COc1ccc(S(=O)(=O)N[C@H]2CC[C@@H](N3CCC(c4ccccc4OCC(F)(F)F)CC3)CC2)cc1OC = FALSE
COc1ccc(Cl)cc1S(=O)(=O)N[C@H]1CC[C@@H](N2CCN(c3ccccc3OC(C)C)CC2)CC1 = TRUE
COc1ccc(S(=O)(=O)N[C@H]2CC[C@@H](N3CCC(c4ccccc4OCC(F)F)CC3)CC2)cc1OC = FALSE

Request: Determine whether this compound shows half-life lower than 20 min (ties excluded): COc1ccc(S(=O)(=O)N[C@H]2CC[C@@H](N3CCC(c4ccccc4OC(C)C)CC3)CC2)cc1OC
Result: TRUE

Request: Same lookup for COc1ccc(S(=O)(=O)N[C@H]2CC[C@@H](N3CCN(c4ccccc4OCC(F)(F)F)CC3)CC2)cc1OC , please.
Result: FALSE

Request: Same lookup for COc1ccc(S(=O)(=O)N[C@H]2CC[C@@H](N3CCN(c4ccccc4OC(C)C)CC3)CC2)cc1OC , please.
Result: TRUE

Request: Same lookup for COc1ccc(C)cc1S(=O)(=O)N[C@H]1CC[C@@H](N2CCN(c3ccccc3OC(C)C)CC2)CC1 , please.
Result: TRUE
